System: Streptococcus pyogenes SSI-9
Test: Antibacterial activity assay of bead-derived peptides (three concentrations)
Format: cell-based
Parameters: key: +++: inhibition by the 640-fold diluted peptide solution; ++: inhibition by the 160-fold diluted solution; +: inhibition by the 40-fold diluted solution; -: no inhibition
Conditions: S. pyogenes, bead-derived peptide solution, three concentrations
Protocol: Each type of assay must be simplified and miniaturized to assess the activities of the library peptides in a 96-well format for the high-throughput screening. Next, the peptides in groups A and B were subjected to the antibacterial assay and structural determination. Three peptide concentrations were applied to evaluate the growth inhibition of S. pyogenes and determine the antibacterial activity. […] Finally, the structures of the peptides were determined. […]
Where a SMILES comes first, the peptide text is derived from it. [ ]: non-standard residue; d: D form. The star is where a group is joined. NHCH2CH2OH = OCCN*; For = O=C*

MOLECULE | antibacterial activity
CNC(=O)C[C@@H](NC(=O)[C@H](Cc1c[nH]c2ccccc12)NC(=O)[C@@H](CC(C)C)NC(=O)[C@H](Cc1c[nH]c2ccccc12)NC(=O)[C@@H](CC(C)C)NC(=O)[C@H](Cc1c[nH]c2ccccc12)NC(=O)[C@H](NC(=O)[C@@H](NC(=O)[C@H](NC(=O)[C@H](C)NC(=O)[C@@H](CC(C)C)NC(=O)[C@H](C)NC(=O)CNC(=O)[C@@H](NC=O)C(C)C)C(C)C)C(C)C)C(C)C)C(=O)N[C@@H](Cc1c[nH]c2ccccc12)C(=O)NCCO [compound 2020] (For-VGA[dL]A[dV]V[dV]W[dL]W[dL]W[dD](NHMe)W-NHCH2CH2OH) | -
CC(C)C[C@@H](NC(=O)[C@H](C)NC(=O)[C@H](NC(=O)[C@H](C)NC(=O)CNC(=O)[C@@H](NC=O)C(C)C)C(C)C)C(=O)N[C@H](C(=O)N[C@@H](C(=O)N[C@@H](Cc1c[nH]c2ccccc12)C(=O)N[C@H](CC(C)C)C(=O)N[C@@H](Cc1c[nH]c2ccccc12)C(=O)N[C@@H](C(=O)N[C@@H](Cc1c[nH]c2ccccc12)C(=O)N[C@@H](C(=O)N[C@@H](Cc1c[nH]c2ccccc12)C(=O)NCCO)C(C)C)C(C)C)[C@H](C)O)C(C)C [compound 8779] (For-VGA[dV]A[dL]V[dT]W[dL]W[dV]W[dV]W-NHCH2CH2OH) | -
CC(C)C[C@@H](NC(=O)[C@H](C)NC(=O)[C@H](NC(=O)[C@H](C)NC(=O)CNC(=O)[C@@H](NC=O)C(C)C)C(C)C)C(=O)N[C@H](C(=O)N[C@H](CC(C)C)C(=O)N[C@@H](Cc1c[nH]c2ccccc12)C(=O)N[C@@H](C(=O)N[C@@H](Cc1c[nH]c2ccccc12)C(=O)N[C@@H](C(=O)N[C@@H](Cc1c[nH]c2ccccc12)C(=O)N[C@@H](C(=O)N[C@@H](Cc1c[nH]c2ccccc12)C(=O)NCCO)[C@H](C)O)C(C)C)C(C)C)C(C)C [compound 6959] (For-VGA[dV]A[dL]V[dL]W[dV]W[dV]W[dT]W-NHCH2CH2OH) | +
CC(C)C[C@@H](NC(=O)[C@H](C)NC(=O)CNC(=O)[C@@H](NC=O)C(C)C)C(=O)N[C@@H](C)C(=O)N[C@@H](C(=O)N[C@H](C(=O)N[C@@H](C(=O)N[C@@H](Cc1c[nH]c2ccccc12)C(=O)N[C@@H](C(=O)N[C@@H](Cc1c[nH]c2ccccc12)C(=O)N[C@H](CC(C)C)C(=O)N[C@@H](Cc1c[nH]c2ccccc12)C(=O)N[C@@H](C(=O)N[C@@H](Cc1c[nH]c2ccccc12)C(=O)NCCO)C(C)C)C(C)C)[C@H](C)O)C(C)C)C(C)C [compound 4427] (For-VGA[dL]A[dV]V[dT]W[dV]W[dL]W[dV]W-NHCH2CH2OH) | -
CNC(=O)C[C@@H](NC(=O)[C@@H](NC(=O)[C@@H](CC(C)C)NC(=O)[C@H](C)NC(=O)[C@H](NC(=O)[C@H](C)NC(=O)CNC(=O)[C@@H](NC=O)C(C)C)C(C)C)C(C)C)C(=O)N[C@@H](Cc1c[nH]c2ccccc12)C(=O)N[C@@H](C(=O)N[C@@H](Cc1c[nH]c2ccccc12)C(=O)N[C@H](CC(C)C)C(=O)N[C@@H](Cc1c[nH]c2ccccc12)C(=O)N[C@H](CC(C)C)C(=O)N[C@@H](Cc1c[nH]c2ccccc12)C(=O)NCCO)C(C)C [compound 12975] (For-VGA[dV]A[dL]V[dD](NHMe)W[dV]W[dL]W[dL]W-NHCH2CH2OH) | -
CC(C)C[C@@H](NC(=O)[C@H](C)NC(=O)CNC(=O)[C@@H](NC=O)C(C)C)C(=O)N[C@@H](C)C(=O)N[C@H](CC(C)C)C(=O)N[C@H](C(=O)N[C@@H](C(=O)N[C@@H](Cc1c[nH]c2ccccc12)C(=O)N[C@@H](C(=O)N[C@@H](Cc1c[nH]c2ccccc12)C(=O)N[C@@H](C(=O)N[C@@H](Cc1c[nH]c2ccccc12)C(=O)N[C@@H](C(=O)N[C@@H](Cc1c[nH]c2ccccc12)C(=O)NCCO)[C@H](C)O)C(C)C)C(C)C)C(C)C)C(C)C [compound 9735] (For-VGA[dL]A[dL]V[dV]W[dV]W[dV]W[dT]W-NHCH2CH2OH) | -
CC(C)C[C@@H](NC(=O)[C@H](Cc1c[nH]c2ccccc12)NC(=O)[C@@H](CC(C)C)NC(=O)[C@H](Cc1c[nH]c2ccccc12)NC(=O)[C@@H](CC(C)C)NC(=O)[C@H](Cc1c[nH]c2ccccc12)NC(=O)[C@H](NC(=O)[C@@H](NC(=O)[C@H](NC(=O)[C@H](C)NC(=O)[C@H](NC(=O)[C@H](C)NC(=O)CNC(=O)[C@@H](NC=O)C(C)C)C(C)C)C(C)C)C(C)C)[C@H](C)O)C(=O)N[C@@H](Cc1c[nH]c2ccccc12)C(=O)NCCO [compound 10353] (For-VGA[dV]A[dV]V[dT]W[dL]W[dL]W[dL]W-NHCH2CH2OH) | -
CC(C)C[C@@H](NC(=O)[C@H](C)NC(=O)CNC(=O)[C@@H](NC=O)C(C)C)C(=O)N[C@@H](C)C(=O)N[C@H](CC(C)C)C(=O)N[C@H](C(=O)N[C@@H](C(=O)N[C@@H](Cc1c[nH]c2ccccc12)C(=O)N[C@@H](C(=O)N[C@@H](Cc1c[nH]c2ccccc12)C(=O)N[C@@H](C(=O)N[C@@H](Cc1c[nH]c2ccccc12)C(=O)N[C@@H](C(=O)N[C@@H](Cc1c[nH]c2ccccc12)C(=O)NCCO)C(C)C)C(C)C)C(C)C)C(C)C)C(C)C [compound 13128] (For-VGA[dL]A[dL]V[dV]W[dV]W[dV]W[dV]W-NHCH2CH2OH) | +
